Quick reference: ED50 of the listed items.
tested on: gastric acid secretion; assay: inhibition of gastric juice secretion, method of H. Shay et al.; assay type: in vivo; conditions: po; rat
Counter-ions that a name gives are not always drawn.
Write the value in mg/kg as a bare number.

Per the record, `CCNCC(=O)Nc1nc(-c2cccnc2)cs1` has ED50 of 16

Per the record, O=C(CNC1CC1)Nc1nc(-c2ccncc2)cs1 [Example 33, dihydrochloride] has ED50 of 20

Per the record, `CCN(CC)CC(=O)Nc1nc(-c2cccnc2)cs1` has ED50 of 40

Per the record, `O=C(CNC1CC1)Nc1nc(-c2cccnc2)cs1` has ED50 of 8

Per the record, CC(C)CNCC(=O)Nc1nc(-c2cccnc2)cs1 [Example 24, dihydrochloride] has ED50 of 23

Per the record, CCCCCCCCNCC(=O)Nc1nc(-c2cccnc2)cs1 [Example 28, dihydrochloride] has ED50 of 40

Per the record, `O=C(CNCc1ccccc1)Nc1nc(-c2cccnc2)cs1` has ED50 of 20

Per the record, CC[N+](C)(CC)CCOC(=O)C1c2ccccc2Oc2ccccc21 [Methantheline, reference compound] has ED50 of 20

Per the record, Cc1sc(NC(=O)CNC2CC2)nc1-c1cccnc1 [Example 31, dihydrochloride] has ED50 of 19

Per the record, CCCCCCNCC(=O)Nc1nc(-c2cccnc2)cs1 [Example 27, dihydrochloride] has ED50 of 30

Per the record, `Cc1sc(NC(=O)CNCCO)nc1-c1cccnc1` has ED50 of 35

###

assay: acute toxicity; conditions: in vivo, po; rat, p.o.; read-out: Acute toxicity LD50, p.o.
Where a name gives a salt, the structure may show the parent alone.
assayMetric: LD50

Some compounds with recorded LD50:
compound | result
CCCCCCNCC(=O)Nc1nc(-c2cccnc2)cs1 [Example 27, dihydrochloride] | 450 mg/kg
CC[N+](C)(CC)CCOC(=O)C1c2ccccc2Oc2ccccc21 [Methantheline, reference compound] | 320 mg/kg
CCNCC(=O)Nc1nc(-c2cccnc2)cs1 [Example 4] | 550 mg/kg
CCCCCCCCNCC(=O)Nc1nc(-c2cccnc2)cs1 [Example 28, dihydrochloride] | 800 mg/kg

Per the record, O=C(CNc1ccccc1)Nc1nc(-c2cccnc2)cs1 [Example 16] has LD50 of > 2000 mg/kg

Per the record, O=C(CNCc1ccccc1)Nc1nc(-c2cccnc2)cs1 [Example 8] has LD50 of 1000 mg/kg

Per the record, Cc1sc(NC(=O)CNCCO)nc1-c1cccnc1 [Example 32] has LD50 of > 1500 mg/kg

Per the record, O=C(CN1CCOCC1)Nc1nc(-c2cccnc2)cs1 [Example 18] has LD50 of 1300 mg/kg

Per the record, Cc1sc(NC(=O)CNC2CC2)nc1-c1cccnc1 [Example 31, dihydrochloride] has LD50 of 1000 mg/kg

###

Quick reference: Anticholinergic effect, ED50, ileum of the listed items.
system: ileum; details: rat
Structures can show the parent of a compound that is named as a salt.

Some compounds with recorded Anticholinergic effect, ED50, ileum:
compound | Anticholinergic effect, ED50, ileum
O=C(CN1CCCCCCC1)Nc1nc(-c2cccnc2)cs1 [Example 19] | > 1 gamma
O=C(CNC1CC1)Nc1nc(-c2ccncc2)cs1 [Example 33, dihydrochloride] | > 1 gamma
O=C(CN1CCOCC1)Nc1nc(-c2cccnc2)cs1 [Example 18] | > 1 gamma
CCN(CC)CC(=O)Nc1nc(-c2cccnc2)cs1 [Example 5] | > 1 gamma
O=C(CNCc1ccccc1)Nc1nc(-c2cccnc2)cs1 [Example 8] | > 1 gamma
Cc1sc(NC(=O)CNCCO)nc1-c1cccnc1 [Example 32] | > 1 gamma

Would you kindly look at the next entry?
Per the record, O=C(CNC1CC1)Nc1nc(-c2cccnc2)cs1 [Example 2] has Anticholinergic effect, ED50, ileum of > 1 gamma

###

tested on: Shay ulcer; experiment: Shay ulcer-inhibiting effect, method of H. Shay et al.; type: in vivo; settings: po, rat
Counter-ions that a name gives are not always drawn.
Quick reference: ED50 of the listed items.

Field ED50 (Shay ulcer), entry `O=C(CN1CCCCC1)Nc1nc(-c2cccnc2)cs1` : > 40 mg/kg

Field ED50 (Shay ulcer), entry `CCN(CC)CC(=O)Nc1nc(-c2cccnc2)cs1` : > 40 mg/kg

Field ED50 (Shay ulcer), entry CC(C)CNCC(=O)Nc1nc(-c2cccnc2)cs1 [Example 24, dihydrochloride] : > 40 mg/kg

Field ED50 (Shay ulcer), entry CCCCCCCCNCC(=O)Nc1nc(-c2cccnc2)cs1 [Example 28, dihydrochloride] : > 40 mg/kg

###

test: in vivo; details: rat
Counter-ions that a name gives are not always drawn.
assayMetric: ED50

compound | ED50
CCN(CC)CC(=O)Nc1nc(-c2cccnc2)cs1 | > 100 mg/kg

Per the record, CCCCCCNCC(=O)Nc1nc(-c2cccnc2)cs1 [Example 27, dihydrochloride] has ED50 of > 100 mg/kg

Per the record, `O=C(CNC1CC1)Nc1nc(-c2cccnc2)cs1` has ED50 of > 100 mg/kg

###

assay: acute toxicity; conditions: in vivo, po; rat, p.o.; read-out: Acute toxicity LD50, p.o.
Structures can show the parent of a compound that is named as a salt.
Quick reference: LD50 of the listed items.
Write the value in mg/kg as a bare number.

compound | assayMetric | numericValue
CC(C)CNCC(=O)Nc1nc(-c2cccnc2)cs1 [Example 24, dihydrochloride] | LD50 | 350

Per the record, `O=C(CN1CCCCC1)Nc1nc(-c2cccnc2)cs1` has LD50 of 1300

Per the record, `O=C(CNC1CC1)Nc1nc(-c2cccnc2)cs1` has LD50 of 420

Per the record, O=C(CNC1CC1)Nc1nc(-c2ccncc2)cs1 [Example 33, dihydrochloride] has LD50 of 900

Per the record, `CCN(CC)CC(=O)Nc1nc(-c2cccnc2)cs1` has LD50 of 1400

###

test system: ileum; details: rat
Where a name gives a salt, the structure may show the parent alone.
assayMetric: Anticholinergic effect, ED50, ileum

Some compounds with recorded Anticholinergic effect, ED50, ileum:
compound | experimentalSystem | Anticholinergic effect, ED50, ileum
CC[N+](C)(CC)CCOC(=O)C1c2ccccc2Oc2ccccc21 [Methantheline, reference compound] | ileum | 3×10^-^5 gamma
CC(C)CNCC(=O)Nc1nc(-c2cccnc2)cs1 [Example 24, dihydrochloride] | ileum | > 1 gamma
O=C(CNc1ccccc1)Nc1nc(-c2cccnc2)cs1 | ileum | > 1 gamma
O=C(CN1CCCCC1)Nc1nc(-c2cccnc2)cs1 | ileum | > 1 gamma

Would you kindly look at the next entry?
Per the record, Cc1sc(NC(=O)CNC2CC2)nc1-c1cccnc1 [Example 31, dihydrochloride] has Anticholinergic effect, ED50, ileum of > 1 gamma

###

Quick reference: LD50 of the listed items.
test: acute toxicity; settings: in vivo, ip; rat, i.p.; read-out: Acute toxicity LD50, i.p.
Counter-ions that a name gives are not always drawn.
Write the value in mg/kg as a bare number.

molecule | quantityUnit | LD50
O=C(CNC1CC1)Nc1nc(-c2ccncc2)cs1 [Example 33, dihydrochloride] | mg/kg | 600
CCN(CC)CC(=O)Nc1nc(-c2cccnc2)cs1 | mg/kg | 460
CCCCCCCCNCC(=O)Nc1nc(-c2cccnc2)cs1 [Example 28, dihydrochloride] | mg/kg | 200
CCNCC(=O)Nc1nc(-c2cccnc2)cs1 | mg/kg | 240
CCCCCCNCC(=O)Nc1nc(-c2cccnc2)cs1 [Example 27, dihydrochloride] | mg/kg | 300

Per the record, CC(C)CNCC(=O)Nc1nc(-c2cccnc2)cs1 [Example 24, dihydrochloride] has LD50 of 200

Per the record, Cc1sc(NC(=O)CNC2CC2)nc1-c1cccnc1 [Example 31, dihydrochloride] has LD50 of 500

###

test system: ileum; details: rat
Where a name gives a salt, the structure may show the parent alone.
assayMetric: Anticholinergic effect, ED50, ileum

molecule | experimentalSystem | Anticholinergic effect, ED50, ileum
CCCCCCCCNCC(=O)Nc1nc(-c2cccnc2)cs1 [Example 28, dihydrochloride] | ileum | > 1 gamma
CCCCCCNCC(=O)Nc1nc(-c2cccnc2)cs1 [Example 27, dihydrochloride] | ileum | > 1 gamma

Per the record, `CCNCC(=O)Nc1nc(-c2cccnc2)cs1` has Anticholinergic effect, ED50, ileum of > 1 gamma
